assay_system: UniProtKB Q9NR97
Sequence (Q9NR97 27-1041): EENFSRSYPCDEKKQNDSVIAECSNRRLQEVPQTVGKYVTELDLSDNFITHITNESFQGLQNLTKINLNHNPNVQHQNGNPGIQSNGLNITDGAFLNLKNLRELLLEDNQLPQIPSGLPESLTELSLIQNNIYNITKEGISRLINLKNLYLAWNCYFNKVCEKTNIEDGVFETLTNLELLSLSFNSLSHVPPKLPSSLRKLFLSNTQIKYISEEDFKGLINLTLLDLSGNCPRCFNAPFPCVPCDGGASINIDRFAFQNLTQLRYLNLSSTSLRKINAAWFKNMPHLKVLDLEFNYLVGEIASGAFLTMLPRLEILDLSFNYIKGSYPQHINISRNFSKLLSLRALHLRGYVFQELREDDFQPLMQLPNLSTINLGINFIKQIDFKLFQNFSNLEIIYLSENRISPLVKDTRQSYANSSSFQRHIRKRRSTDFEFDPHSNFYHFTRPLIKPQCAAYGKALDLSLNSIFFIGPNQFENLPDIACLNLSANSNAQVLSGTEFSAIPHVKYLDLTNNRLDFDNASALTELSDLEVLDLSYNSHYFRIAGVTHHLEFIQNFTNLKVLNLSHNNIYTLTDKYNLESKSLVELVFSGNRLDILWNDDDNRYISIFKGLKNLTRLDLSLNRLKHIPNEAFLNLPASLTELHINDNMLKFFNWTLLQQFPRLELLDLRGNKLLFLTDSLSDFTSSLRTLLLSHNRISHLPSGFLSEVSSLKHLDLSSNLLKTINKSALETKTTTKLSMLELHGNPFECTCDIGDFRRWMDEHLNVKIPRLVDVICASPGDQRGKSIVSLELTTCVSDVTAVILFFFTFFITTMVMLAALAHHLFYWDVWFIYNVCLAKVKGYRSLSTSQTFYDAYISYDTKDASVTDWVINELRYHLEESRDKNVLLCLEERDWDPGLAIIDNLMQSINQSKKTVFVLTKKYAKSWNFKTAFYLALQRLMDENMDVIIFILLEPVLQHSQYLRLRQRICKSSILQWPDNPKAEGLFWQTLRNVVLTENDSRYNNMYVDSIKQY
assay_notes: TLR8 inhibition reporter assay (HEK-Blue cells, SEAP reporter, R848 stimulation)
experimental_parameters: HEK-Blue cells overexpressing human TLR8, SEAP reporter, R848 15.9 μM
pIC50: −log10 of the molar value.
I would appreciate it if you labelled entries t when pIC50 is 8 or higher, otherwise f.

IN: Item Cc1c(-c2[nH]c3ccc(C4CCC(N5CC(F)(F)C5)CC4)cc3c2C(C)C)cn2ncnc2c1C (stereo not drawn) [Example 24] with pIC50 of 8 or above?
OUT: f

IN: Item Cc1cc(-c2[nH]c3ccc(C4CCCN(C(=O)C5(C)COC5)C4)cc3c2C(C)C)cc(C)n1 (stereo not drawn) [Example 204] with pIC50 of 8 or above?
OUT: f

IN: Item CNCC(=O)N1CCOC(c2ccc3[nH]c(-c4cn5ncnc5c(C)c4C)c(C(C)C)c3c2)C1 (stereo not drawn) [Example 341] with pIC50 of 8 or above?
OUT: t

IN: Item COc1cc(-c2[nH]c3ccc(C4CN(CCS(C)(=O)=O)C4)cc3c2C(C)C)cn2ncnc12 with pIC50 of 8 or above?
OUT: t

IN: Item Cc1cc(-c2[nH]c3ccc(C4CN(CC5(C)COC5)CCO4)cc3c2C(C)C)cn2ncnc12 (stereo not drawn) [Example 292] with pIC50 of 8 or above?
OUT: t

IN: Item Cc1cc(-c2[nH]c3ccc(C4CCCN(C(=O)[C@@H]5CCN5)C4)cc3c2C(C)C)cc(C)n1 (stereo partly drawn) [Example 218] with pIC50 of 8 or above?
OUT: f

IN: Item COc1cc(-c2[nH]c3ccc(C4CCC(NC5(C)COC5)CC4)cc3c2C(C)C)cn2ncnc12 (single isomer, unassigned) [Example 44] with pIC50 of 8 or above?
OUT: t

IN: Item CN[C@@H](C)C(=O)NC1CCC(c2ccc3[nH]c(-c4cn5ncnc5c(C)c4C)c(C(C)C)c3c2)CC1 (stereo partly drawn) with pIC50 of 8 or above?
OUT: t

IN: Item Cc1cc(-c2[nH]c3ccc(CCN4CC[C@@H](F)C4)cc3c2C(C)C)cn(C)c1=O with pIC50 of 8 or above?
OUT: t

IN: Item Cc1c(-c2[nH]c3ccc(C4CCC(NC5COC5)CC4)cc3c2C(C)C)cn2cnnc2c1C (stereo not drawn) [Example 524] with pIC50 of 8 or above?
OUT: f

IN: Item CNC1CCC(c2ccc3[nH]c(-c4cn5ncnc5c(C)c4C)c(C(C)C)c3c2)CC1 (stereo not drawn) [Example 89] with pIC50 of 8 or above?
OUT: t

IN: Item Cc1cc(-c2[nH]c3ccc(C4CCC(O)(C(F)(F)F)CC4)cc3c2C(C)C)cc(C)n1 (stereo not drawn) with pIC50 of 8 or above?
OUT: f

IN: Item COc1cc(-c2[nH]c3ccc(C4CC(NCC(=O)N(C)C)C4)cc3c2C(C)C)cn2ncnc12 (stereo not drawn) with pIC50 of 8 or above?
OUT: t

IN: Item CCc1c(-c2ccnc(C)c2)[nH]c2ccc(CC3CCCN3)cc12 (stereo not drawn) with pIC50 of 8 or above?
OUT: f

IN: Item Cc1c(-c2[nH]c3ccc(C4CCC(NC5COC5)CC4)cc3c2C(C)C)cn(C)c(=O)c1C (stereo not drawn) [Example 474] with pIC50 of 8 or above?
OUT: f

IN: Item Cc1cc(-c2[nH]c3ccc(C4CCC(N(C)C)CC4)cc3c2C(C)C)cc(C)n1 (single isomer, unassigned) [Example 53] with pIC50 of 8 or above?
OUT: t
